Assay: Conjugator-antibody conjugate maleimide hydrolysis (ring opening) kinetics by reduced LCMS
Type: physicochemical
Conditions: pH 7, time point 1 h
Protocol: After the conjugation step, the ADC (or conjugator-antibody conjugate) was subjected to buffer exchange into ring opening buffer (pH 6.5˜9.0, PBS, borate or tris buffer) and the solution was left at 22 or 37° C. for 1˜48 h. The maleimide ring opening process was monitored via reduced LCMS. Once the conjugated maleimide hydrolysis was completed, the resulting ADCs were buffer exchanged into basic tris pH 8.0-8.5 buffer or acidic histidine-acetate pH 5.0-6.5 buffer via dialysis. […]

[
  {
    "compound": "CC(C)N(CCC(=O)N(C)C)C(=O)OCC(CN)N1C(=O)C=CC1=O (stereo not shown) [3-9]",
    "MS DAR": 7.94
  },
  {
    "compound": "CN(C)C(=O)CCCCC(CN)N1C(=O)C=CC1=O (stereo not shown) [3-10]",
    "MS DAR": 8
  },
  {
    "compound": "CN(C)C(=O)CCNC(=O)NCC(CN)N1C(=O)C=CC1=O (stereo not shown) [3-12]",
    "MS DAR": 8
  },
  {
    "compound": "CN(C)C(=O)CCOCCC(CN)N1C(=O)C=CC1=O (stereo not shown) [3-14]",
    "MS DAR": 8
  },
  {
    "compound": "CN(C)C(=O)CCNC(=O)OCC(CCN)N1C(=O)C=CC1=O (stereo not shown) [3-11]",
    "MS DAR": 8
  },
  {
    "compound": "CN(C)C(=O)CCNC(=O)OCCC(CN)N1C(=O)C=CC1=O (stereo not shown) [3-13]",
    "MS DAR": 8
  },
  {
    "compound": "NCC(COC(=O)NCCOCCOCCOCCOCCC(=O)O)N1C(=O)C=CC1=O (stereo not shown) [3-4]",
    "MS DAR": 7.96
  }
]
